// reported DC50 per item
Biological target: IRAK4 (Homo sapiens, UniProt Q9NWZ3)
Construct: Degradation of IRAK4 in OCI-LY10 was quantitatively measured using Meso Scale Discovery technology; endogenous in cells; host or cells: OCI-LY10
Assay: IRAK4 MSD Degradation in OCI-LY10
Format: cell-based
Settings: OCI-LY10 cells, 24 hrs incubation, MSD; read-out: IRAK4 degradation in OCI-LY10 at 24 hrs: DC50
observable: DC50

molecule | value
Cn1c(=O)n(C2CCC(=O)NC2=O)c2cccc(N3CC(F)(F)C34CN(C[C@H]3CC[C@H](n5cc6cc(NC(=O)c7cccc(C(F)(F)F)n7)ccc6n5)CC3)C4)c21 (some centres unmarked) | > 0.2 µM
COc1cc2nn([C@H]3CC[C@H](CN4CC(c5cccc6c5n(C)c(=O)n6C5CCC(=O)NC5=O)C4)CC3)cc2cc1NC(=O)c1cncc(C(C)(C)F)n1 (some centres unmarked) | > 0.2 µM
Cc1cccc(C(=O)Nc2cc3cn([C@H]4CC[C@H](CN5CCC(c6cccc7c6n(C)c(=O)n7C6CCC(=O)NC6=O)C(F)(F)C5)CC4)nc3cc2C(C)(C)O)n1 (some centres unmarked) | < 0.01 µM
Cn1c(=O)n(C2CCC(=O)NC2=O)c2cccc(N3CCN([C@@H]4CCN(C[C@H]5CC[C@H](n6cc(NC(=O)c7cnn8ccc(N9CC%10(COC%10)C9)nc78)c(C(F)F)n6)CC5)CC4(F)F)CC3)c21 (some centres unmarked) | > 0.2 µM
Cn1c(=O)n(C2CCC(=O)NC2=O)c2cccc(C#CCN3CCN(C[C@H]4CC[C@H](n5cc(NC(=O)c6cnn7ccc(N8CC9(COC9)C8)nc67)c(C(F)F)n5)CC4)CC3)c21 (some centres unmarked) | < 0.01 µM

* * *

Target: IRAK4 (Homo sapiens)
Construct: Degradation of IRAK4 in OCI-LY10 was quantitatively measured using Meso Scale Discovery technology; endogenous in cells; host or cells: OCI-LY10
Sequence (Q9NWZ3 1-460): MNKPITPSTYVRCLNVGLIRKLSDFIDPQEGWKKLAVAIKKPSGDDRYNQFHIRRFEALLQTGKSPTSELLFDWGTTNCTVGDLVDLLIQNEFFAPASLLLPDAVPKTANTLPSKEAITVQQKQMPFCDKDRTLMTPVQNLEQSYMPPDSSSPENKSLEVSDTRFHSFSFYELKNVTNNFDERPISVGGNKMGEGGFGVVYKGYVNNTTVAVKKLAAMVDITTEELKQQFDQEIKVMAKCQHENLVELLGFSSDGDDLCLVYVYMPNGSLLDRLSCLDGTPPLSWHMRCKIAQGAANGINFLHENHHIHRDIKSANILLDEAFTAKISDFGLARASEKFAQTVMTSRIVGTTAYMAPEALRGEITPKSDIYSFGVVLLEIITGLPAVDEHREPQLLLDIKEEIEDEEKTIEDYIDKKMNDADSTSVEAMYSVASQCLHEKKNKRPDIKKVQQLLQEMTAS
Test: IRAK4 MSD Degradation in OCI-LY10
Assay type: cell-based
Conditions: OCI-LY10 cells, 24 hrs incubation, MSD; read-out: IRAK4 degradation in OCI-LY10 at 24 hrs: DC50
// reported DC50 per item
observable: DC50

molecule | value
Cn1c(=O)n(C2CCC(=O)NC2=O)c2cccc(C#CCOC3CCN(C[C@H]4CC[C@H](n5cc(NC(=O)c6cnn7ccc(N8C[C@H]9C[C@@H]8CO9)nc67)c(C(F)F)n5)CC4)CC3(F)F)c21 (some centres unmarked) [I-18] | > 200 nM
Cn1c(=O)n(C2CCC(=O)NC2=O)c2cccc([C@@H]3CCN(C[C@H]4CC[C@H](n5cc6cc(NC(=O)c7cccc(C#N)n7)ncc6n5)CC4)C[C@@H]3F)c21 (some centres unmarked) [I-636] | > 200 nM
Cc1cccc(C(=O)Nc2ccc3nn([C@H]4CC[C@H](CN5CC[C@@H](c6cccc7c6n(C)c(=O)n7C6CCC(=O)NC6=O)[C@@H](F)C5)CC4)cc3c2)n1 (some centres unmarked) [I-620] | > 200 nM
COc1cc2nn([C@H]3CC[C@H](CN4CCC5(CC4)CCN(c4cccc6c(N7CCC(=O)NC7=O)cccc46)CC5)CC3)cc2cc1NC(=O)c1cncc(C#N)c1 [I-93] | 10 to 100 nM
Cn1c(=O)n(C2CCC(=O)NC2=O)c2cccc(N3CCN(C4CCN(C[C@H]5CC[C@H](n6cc(NC(=O)c7cnn8ccc(N9CCC%10(COC%10)C9)nc78)c(C(F)F)n6)CC5)CC4(F)F)CC3)c21 (some centres unmarked) [I-723] | < 10 nM
